target.desc: C-X-C chemokine receptor type 2 (Homo sapiens, UniProt P25025)
Sequence (P25025 whole entry): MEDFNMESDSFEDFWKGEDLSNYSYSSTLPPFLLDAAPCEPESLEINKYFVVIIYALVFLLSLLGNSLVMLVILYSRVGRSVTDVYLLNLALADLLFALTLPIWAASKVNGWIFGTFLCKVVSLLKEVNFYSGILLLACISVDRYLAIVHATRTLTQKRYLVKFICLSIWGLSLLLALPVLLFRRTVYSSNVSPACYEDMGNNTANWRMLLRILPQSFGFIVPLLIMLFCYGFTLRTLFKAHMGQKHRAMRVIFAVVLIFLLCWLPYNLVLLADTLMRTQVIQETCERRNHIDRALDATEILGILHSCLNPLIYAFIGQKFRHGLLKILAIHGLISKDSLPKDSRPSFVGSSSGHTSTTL
assay.summary: Displacement of europium labeled-human IL8 from human cloned CXCR2 expressed in Sf9 membrane with Galphai3-beta-1-gamma-2 by DELFIA binding assay
Task for the reader: assign each of the following compounds its reported IC50.
Your reply should be a number followed by the unit it is expressed in.

API: value(readout=IC50, system=C-X-C chemokine receptor type 2 (Homo sapiens, UniProt P25025)) for record N#Cc1ccc2[nH]c(-c3ccc(F)cc3)c(CCCC(=O)NS(N)(=O)=O)c2c1
0.066 µM

Please answer likewise for O=C(NCCc1c(-c2ccc(F)cc2)[nH]c2ccc(Br)cc12)NS(=O)(=O)c1ccccc1
0.12 µM

Please answer likewise for CCS(=O)(=O)NC(=O)CCCc1c(-c2ccc(F)cc2)[nH]c2ccc(C#N)cc12
0.064 µM

Please answer likewise for CNS(=O)(=O)NC(=O)CCCc1c(-c2ccc(F)cc2)[nH]c2ccc(C#N)cc12
0.12 µM

Please answer likewise for N#Cc1ccc2[nH]c(-c3ccc(F)cc3)c(CCCC(=O)NS(=O)(=O)C(F)(F)F)c2c1
0.087 µM

Please answer likewise for COc1cc2[nH]c(-c3ccc(F)cc3)c(CCCC(=O)NS(C)(=O)=O)c2cc1C#N
0.16 µM
